biological target: DCN1 (DCUND1) protein PONY domain (Homo sapiens (Human)); assay: TR-FRET assay (binding to DCN-1, displacement of FAM-labeled probe); conditions: TR FRET IC50 1 hr (nM), 1 hr after treatment with compound
// IC50 lookup, one value per entry

Molecule: CCN1C(=O)[C@@H](NC(=O)c2cccc(C(F)(F)F)c2)[C@@H](c2cccc(NC(=O)[C@H](F)Cl)c2)c2c(C)nn(-c3ccccc3)c21 (mixture of isomers)
Experimental system: DCN1 (DCUND1) protein PONY domain (Homo sapiens (Human))
IC50: > 3000 nM

Molecule: C=C(CN(C)C1COC1)C(=O)NCc1cccc([C@H]2c3cnn(-c4ccccc4)c3N(CC)C(=O)[C@@H]2NC(=O)c2cccc(C(F)(F)F)c2)c1
Experimental system: DCN1 (DCUND1) protein PONY domain (Homo sapiens (Human))
IC50: 1000 to 3000 nM

Molecule: C=C(CN1CCOCC1)C(=O)Nc1cccc([C@H]2c3c(C)nn(-c4ccccc4)c3N(CC)C(=O)[C@@H]2NC(=O)c2cccc(C(F)(F)F)c2)c1 (racemic)
Experimental system: DCN1 (DCUND1) protein PONY domain (Homo sapiens (Human))
IC50: ≤ 200 nM

Molecule: CC#CC(=O)Nc1ccccc1[C@H]1c2cnn(-c3ccccc3)c2N(CC)C(=O)[C@@H]1NC(=O)c1cccc(C(F)(F)F)c1 (racemic)
Experimental system: DCN1 (DCUND1) protein PONY domain (Homo sapiens (Human))
IC50: > 3000 nM

Molecule: C=C(CN1CCN(C2COC2)CC1)C(=O)NCc1cccc([C@H]2c3cnn(-c4ccccc4)c3N(CC)C(=O)[C@@H]2NC(=O)c2cccc(C(F)(F)F)c2)c1
Experimental system: DCN1 (DCUND1) protein PONY domain (Homo sapiens (Human))
IC50: 1000 to 3000 nM

Molecule: CCN1C(=O)[C@H](NC(=O)c2cccc(C(F)(F)F)c2)[C@@H](c2ccccc2NC(=O)C23CC2C3)c2cnn(-c3ccccc3)c21 (mixture of isomers)
Experimental system: DCN1 (DCUND1) protein PONY domain (Homo sapiens (Human))
IC50: 1000 to 3000 nM

Molecule: C=C(CC(=O)NCc1cccc([C@@H]2c3cnn(-c4ccccc4)c3N(CC)C(=O)[C@H]2NC(=O)c2cccc(C(F)(F)F)c2)c1)C(=O)OC
Experimental system: DCN1 (DCUND1) protein PONY domain (Homo sapiens (Human))
IC50: 1000 to 3000 nM

Molecule: C=CC(=O)N(C)c1ccccc1[C@H]1c2cnn(-c3ccccc3)c2N(CC)C(=O)[C@@H]1NC(=O)c1cccc(C(F)(F)F)c1 (racemic)
Experimental system: DCN1 (DCUND1) protein PONY domain (Homo sapiens (Human))
IC50: 1000 to 3000 nM

Molecule: CCN1C(=O)[C@@H](NC(=O)c2cccc(C(F)(F)F)c2)[C@H](c2cccc(NC(=O)C3=C(C(=O)OC)CCC3)c2)c2c(C)nn(-c3ccccc3)c21 (racemic)
Experimental system: DCN1 (DCUND1) protein PONY domain (Homo sapiens (Human))
IC50: 1000 to 3000 nM

Molecule: C/C=C(\CN1CC2(COC2)C1)C(=O)NCc1cccc([C@@H]2c3cnn(-c4ccccc4)c3N(CC)C(=O)[C@H]2NC(=O)c2ccn(C(F)(F)F)n2)c1
Experimental system: DCN1 (DCUND1) protein PONY domain (Homo sapiens (Human))
IC50: 200 to 1000 nM

Molecule: CCN1CC=C(C(=O)Nc2cccc([C@@H]3c4c(C)nn(-c5ccccc5)c4N(CC)C(=O)[C@H]3NC(=O)c3ccn(C(F)(F)F)n3)c2)C1
Experimental system: DCN1 (DCUND1) protein PONY domain (Homo sapiens (Human))
IC50: 200 to 1000 nM

Molecule: C/C=C(/CN1CCN(C2COC2)CC1)C(=O)N(C)c1cccc([C@@H]2c3cnn(-c4ccccc4)c3N(CC)C(=O)[C@H]2NC(=O)c2csc(C(F)(F)F)n2)c1
Experimental system: DCN1 (DCUND1) protein PONY domain (Homo sapiens (Human))
IC50: 1000 to 3000 nM

Molecule: CC#CC(=O)N(C)c1ccccc1[C@H]1c2cnn(-c3ccccc3)c2N(CC)C(=O)[C@@H]1NC(=O)c1cccc(C(F)(F)F)c1 (racemic)
Experimental system: DCN1 (DCUND1) protein PONY domain (Homo sapiens (Human))
IC50: 1000 to 3000 nM

Molecule: C=C(CN1CCC(F)(F)C1)C(=O)NCc1cccc([C@H]2c3cnn(-c4ccccc4)c3N(CC)C(=O)[C@@H]2NC(=O)c2cccc(C(F)(F)F)c2)c1
Experimental system: DCN1 (DCUND1) protein PONY domain (Homo sapiens (Human))
IC50: 1000 to 3000 nM

Molecule: C/C=C(\CN1CCN(C2COC2)CC1)C(=O)NCc1cccc([C@@H]2c3cnn(-c4ccccc4)c3N(CC)C(=O)[C@H]2NC(=O)c2ccn(C(F)(F)F)n2)c1 [Compound I-230A]
Experimental system: DCN1 (DCUND1) protein PONY domain (Homo sapiens (Human))
IC50: 200 to 1000 nM

Molecule: CCN1C(=O)[C@@H](NC(=O)c2nccc(C(F)(F)F)n2)[C@H](c2cccc(C(=O)N3CC(F)(F)C[C@H]3C#N)c2)c2cnn(-c3ccccc3)c21 (mixture of isomers)
Experimental system: DCN1 (DCUND1) protein PONY domain (Homo sapiens (Human))
IC50: 1000 to 3000 nM

Molecule: CCN1CC=C(C(=O)Nc2cccc([C@@H]3c4c(C)nn(-c5ccccc5)c4N(CC)C(=O)[C@H]3NC(=O)c3nccc(C(F)(F)F)n3)c2)C1
Experimental system: DCN1 (DCUND1) protein PONY domain (Homo sapiens (Human))
IC50: 200 to 1000 nM

Molecule: C=C(C(=O)N(C)Cc1cccc([C@@H]2c3cnn(-c4ccccc4)c3N(CC)C(=O)[C@H]2NC(=O)c2ccn(C(F)(F)F)n2)c1)C(C)N(C)C1COC1 (stereo partly drawn)
Experimental system: DCN1 (DCUND1) protein PONY domain (Homo sapiens (Human))
IC50: 1000 to 3000 nM

Molecule: C/C=C(\CN1CCN(C2COC2)CC1)C(=O)Nc1cccc([C@@H]2c3cnn(-c4ccccc4)c3N(CC)C(=O)[C@H]2NC(=O)c2ccn(C3CC3)n2)c1
Experimental system: DCN1 (DCUND1) protein PONY domain (Homo sapiens (Human))
IC50: ≤ 200 nM

Molecule: C=C(C(=O)NCc1cccc([C@@H]2c3cnn(-c4ccccc4)c3N(CC)C(=O)[C@H]2NC(=O)c2ccn(CCF)n2)c1)C(C)N(C)C1COC1 (stereo partly drawn)
Experimental system: DCN1 (DCUND1) protein PONY domain (Homo sapiens (Human))
IC50: 200 to 1000 nM

Molecule: C=C(CN1CCOCC1)C(=O)N(C)Cc1cccc([C@@H]2c3cnn(-c4ccccc4)c3N(CC)C(=O)[C@H]2NC(=O)c2ccn(C(F)(F)F)n2)c1
Experimental system: DCN1 (DCUND1) protein PONY domain (Homo sapiens (Human))
IC50: 1000 to 3000 nM

====

Reported IC50 values for a set of molecules
biological target: DCN1 (DCUND1) protein PONY domain (Homo sapiens (Human), UniProt Q96GG9); test: TR-FRET assay (binding to DCN-1, displacement of FAM-labeled probe); conditions: 24 hr after treatment with compound; read-out: TR FRET IC50 24 hr
Sequence (Q96GG9 60-248): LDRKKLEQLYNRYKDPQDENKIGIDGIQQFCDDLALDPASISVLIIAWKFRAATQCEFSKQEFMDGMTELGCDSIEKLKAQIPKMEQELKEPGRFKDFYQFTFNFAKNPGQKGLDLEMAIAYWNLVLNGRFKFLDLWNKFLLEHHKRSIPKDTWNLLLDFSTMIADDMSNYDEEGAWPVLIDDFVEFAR

Molecule: C/C=C(\CN1CCC12COC2)C(=O)Nc1cccc([C@@H]2c3cnn(-c4ccccc4)c3N(CC)C(=O)[C@H]2NC(=O)c2nccc(C(F)(F)F)n2)c1
IC50: ≤ 0.2 µM

Molecule: CCN1C(=O)[C@@H](NC(=O)c2cccc(C(F)(F)F)c2)[C@H](c2cccc(CNC(=O)C(C)Cl)c2)c2cnn(-c3ccccc3)c21 (mixture of isomers)
IC50: 1 to 3 µM

Molecule: CCN1C(=O)[C@@H](NC(=O)c2nccc(C(F)(F)F)n2)[C@H](c2cccc(CNC(=O)C(COC)CN3CCC(F)(F)C3)c2)c2cnn(-c3ccccc3)c21 (some centres unmarked)
IC50: 1 to 3 µM

Molecule: CCN1C(=O)[C@@H](NC(=O)c2nccc(C(F)(F)F)n2)[C@H](c2cccc(C(=O)N3CCC[C@@H]3C#N)c2)c2cnn(-c3ccccc3)c21 (mixture of isomers)
IC50: 1 to 3 µM

Molecule: C=C(C(=O)NCc1cccc([C@@H]2c3cnn(-c4ccccc4)c3N(CC)C(=O)[C@H]2NC(=O)c2csc(C(F)(F)F)n2)c1)C(C)(C)N(C)C1COC1
IC50: ≤ 0.2 µM

====

Target: DCN1 (DCUND1) protein PONY domain (Homo sapiens (Human), UniProt Q96GG9)
Assay: TR-FRET assay (binding to DCN-1, displacement of FAM-labeled probe)
Conditions: TR FRET IC50 1 hr (nM), 1 hr after treatment with compound
Procedure: The TR-FRET assay was designed following the Scott et al. protocol (Scott et al., Nat Chem Biol. 2017 August; 13(8): 850-857. doi:10.1038/nchembio.2386). […] The TR-FRET ratio between Tb-DCN1 and the FAM-labeled probe was measured in a 384-well opti-plate (Perkin Elmer) using a plate reader (BMG) at 1, 5, and 24 hrs after treatment with compound (final DMSO concentration of 0.1%). […]
Measure name: IC50

Molecule: CCN1C(=O)[C@@H](NC(=O)c2cccc(C(F)(F)F)c2)[C@H](c2cccc(CNC(=O)C3=CCC3)c2)c2cnn(-c3ccccc3)c21 (racemic) [Compound I-126]
Measure name: IC50
Data value: 1000 to 3000 nM
//
Molecule: CCN1C(=O)[C@H](NC(=O)c2cccc(C(F)(F)F)c2)[C@@H](c2cccc(CNC(=O)C3=C(C(=O)OC)CCC3)c2)c2cnn(-c3ccccc3)c21 [Compound I-119]
Measure name: IC50
Data value: 1000 to 3000 nM
//
Molecule: CCN1C(=O)[C@@H](NC(=O)c2nccc(C(F)(F)F)n2)[C@H](c2cccc(C(=O)N(C)CC#N)c2)c2cnn(-c3ccccc3)c21 (racemic) [Compound I-370]
Measure name: IC50
Data value: 1000 to 3000 nM
